Recorded values, source ChEMBL document CHEMBL1154855.

Each item that follows carries a reported CC50.
System: MDCK
Experiment: Cytotoxicity against Influenza A virus subtype H3N2 infected MDCK cells by trypan blue exclusion method
Format: cell-based, Canis lupus familiaris
Details: dog

Incoming: Lab note: need CC50 with MDCK for entry COc1cc(/C=C/C(=O)C(CCOC(=O)CCC(NC(=O)c2ccc(NCc3cnc4nc(N)[nH]c(=O)c4n3)cc2)C(=O)O)C(=O)/C=C/c2ccc(O)c(OC)c2)ccc1O (centres undefined) , please look it up.
Outgoing: > 0.011 µM

Incoming: Here is the next compound: COc1cc(/C=C/C(=O)CC(=O)/C=C/c2ccc(OCCOC(=O)CCC(NC(=O)c3ccc(NCc4cnc5nc(N)[nH]c(=O)c5n4)cc3)C(=O)O)c(OC)c2)ccc1O (centres undefined)
Outgoing: > 0.119 µM

Incoming: Here is the next compound: COc1cc(/C=C/C(=O)CC(=O)/C=C/c2ccc(OC(=O)[C@H](Cc3ccccc3)NC(=O)[C@@H](N)Cc3c[nH]c4ccccc34)c(OC)c2)ccc1OC(=O)[C@H](Cc1ccccc1)NC(=O)[C@@H](N)Cc1c[nH]c2ccccc12
Outgoing: 0.046 µM

Incoming: Here is the next compound: COc1cc(/C=C/C(=O)CC(=O)/C=C/c2ccc(O)c(OC)c2)ccc1O [CURCUMIN]
Outgoing: > 0.092 µM
